Value source: a melting point compilation (Tetko et al.; mined from patent text by program, amines drawn as free bases though some values may be those of a salt)

Let's look at some compounds and their measured melting point.

Illustrative cases are given below, each with its answer.
State the recorded melting point for this entry: `Cc1nc(-n2cc(-c3ccc(F)cc3)nn2)sc1C(=O)NCc1ccccc1`
203 to 205 °C

State the recorded melting point for this entry: `O=C1NN=CC1=CNCCC(F)=C(F)F`
126 to 130 °C

State the recorded melting point for this entry: `CCCCCCCCCCOc1ccc(C(=O)O)cc1C12CC3CC(CC(C3)C1)C2`
151 to 152 °C

State the recorded melting point for this entry: O=S(=O)(c1cccc2ccccc12)c1n[nH]c2ccc(OCC3CCCNC3)cc12 (stereo unspecified)
168 to 170 °C

State the recorded melting point for this entry: COc1ccc2c(c1)CCC1CCNC(=O)C(CC(C)=NO)=C21 (stereo unspecified)
216 to 218 °C

More entries:
State the recorded melting point for this entry: `CC(=O)Nc1nc(CC(=O)O)ns1`
161 to 163 °C

State the recorded melting point for this entry: CNC(=O)C(C)Oc1ccc(O)cc1 (stereo unspecified)
112 °C

###

Let's look at some compounds and their measured melting point.

Illustrative cases are given below, each with its answer.
State the recorded melting point for this entry: `Cn1cc(C(=O)NCc2ccc(Cl)cc2)c(=O)c2cc(CO)sc21`
222 to 225 °C

State the recorded melting point for this entry: COc1ccc(CN2C(=O)c3c(-c4ccccc4Cl)cc4c(c3C2=O)c2cc(OC)ccc2n4CC(O)CO)c(OC)c1 (stereo not given)
151 to 156 °C

State the recorded melting point for this entry: CCc1nc2cc(F)ccc2c(=O)n1NC(=O)C(C)c1ccccc1 (stereo not given)
57 to 63 °C

State the recorded melting point for this entry: O=C1CCC(N2Cc3c(OCc4ccc5ccccc5c4)cccc3C2=O)C(=O)N1 (stereo not given)
277 to 279 °C

State the recorded melting point for this entry: `C[C@@H](O)c1nccc(N2CCn3c(nnc3-c3nc4ccccc4s3)C2)n1`
216 to 218 °C

More entries:
State the recorded melting point for this entry: NC(=O)N1CC(c2ccccc2)c2ccccc21 (stereo not given)
144 to 145 °C

State the recorded melting point for this entry: `Cn1cc(S(=O)(=O)Cl)c(=O)c2ccc(C(F)(F)F)cc21`
262 to 265 °C

State the recorded melting point for this entry: CC(C(=O)c1ccc(Cl)cc1)n1ncn(-c2ccc(N3CCN(Cc4ccccc4)CC3)cc2)c1=O (stereo not given)
164 °C

State the recorded melting point for this entry: CCCCCC1OCc2cc(C(=O)Oc3ccc(CCC)cc3)ccc2O1 (stereo not given)
97.5 °C

State the recorded melting point for this entry: `CCOC(=O)CCc1ccc(CCNS(=O)(=O)CCc2ccc(Cl)cc2)cc1`
77 to 78 °C

###

Let's look at some compounds and their measured melting point.
Write the number in °C without appending the unit.

State the recorded melting point for this entry: `O=C(O)c1c(CNS(=O)(=O)c2cccc(Cl)c2)nn(-c2ccc(Cl)cc2Cl)c1-c1ccc(Cl)cc1`
211

For the next question, use this compound.
State the recorded melting point for this entry: `CC#CCOc1ccc(S(=O)(=O)C2(C(=O)O)CCN(Cc3ccc(C#N)cc3)CC2)cc1`
110

###

Let's look at some molecules and their measured melting point.

State the recorded melting point for this entry: `O=C1CCCc2cc(NS(=O)(=O)c3ccccc3)ccc21`
164 to 165 °C

More entries:
State the recorded melting point for this entry: `C=CCN1C(=O)c2cccc3c(N(C)CCO)ccc(c23)C1=O`
90 to 91 °C

State the recorded melting point for this entry: `O=C(Nc1ccc2c(c1)OC(F)(F)O2)NC12CC3CC(CC(C3)C1)C2`
213 to 215 °C
